Would you kindly list SPA ASSAY % Residual T @ 2 ug/mL of drug (Average of) for each of these compounds?
Test system: GST-p53 DNA binding domain (aa 92-aa 312)
Test: Scintillation Proximity Assay (displacement of 3H-labeled p53 binder)
Conditions: percentage of 3H-labeled ligand remaining bound, number in brackets = average of n

In: Fill in the blank: the reported SPA ASSAY % Residual T @ 2 ug/mL of drug (Average of) of `CN(C)CCCNc1nc(CN(C)Cc2cccc(F)c2)nc2ccccc12` is ____.
Out: 64.1%

In: Next record, please: CN(C)CCCNc1nc(CN2CCN(C(c3ccccc3)c3ccc(OC(F)(F)F)cc3)CC2)nc2ccccc12 (stereo not drawn) [Formula 9]
Out: 27.9%

In: # iterate: `Clc1ccc(C(c2ccc(Cl)cc2)N2CCN(Cc3nc(N4CCN(c5ccccc5)CC4)c4ccccc4n3)CC2)cc1`
Out: 87.5%

In: Please do the same for `CN(C)CCCNc1nc(CN(C)Cc2nccs2)nc2ccccc12` as well.
Out: 37.0 (3) %

In: Consider next the compound `CN(C)CC[C@H](Nc1nc(CN2CCN(C(c3ccc(Cl)cc3)c3ccc(Cl)cc3)CC2)nc2ccccc12)C(N)=O` in the same way.
Out: 44.8%

In: Then this compound: `CN(C)CCCNc1nc(CN2CCN(C(=O)Nc3ccc(C#N)cc3)CC2)nc2ccccc12`
Out: 52.5%

In: How about this compound: CCC(C)CN(C)Cc1nc(NCCCN(C)C)c2ccccc2n1 (stereo not drawn)
Out: 50.0 (3) %

In: Another compound to look at: `CN(C)CCCNc1nc(CN(C)C/C=C/c2ccccc2)nc2ccccc12`
Out: 68.4%

In: What do we get for `Clc1ccc(C(c2ccc(Cl)cc2)N2CCN(Cc3nc(N4CCN(c5ncccn5)CC4)c4ccccc4n3)CC2)cc1` ?
Out: 85.0%

In: Same for CCN(CC)C(=O)C1CCCN(c2nc(CN3CCN(C(c4ccc(Cl)cc4)c4ccc(Cl)cc4)CC3)nc3ccccc23)C1 (stereo not drawn)
Out: 65.7%

In: Now this one: `CN(Cc1ccccc1)c1nc(CN2CCN(C(c3ccc(Cl)cc3)c3ccc(Cl)cc3)CC2)nc2ccccc12`
Out: 80.7%

In: Same for `CN(C)CCCNc1nc(CN(C)C2CCC3(CC2)OCCO3)nc2ccccc12`
Out: 23.0 (2) %

In: Also, CCC(C)(C)C1CCC(N2CCN(Cc3nc(NCCCN(C)C)c4ccccc4n3)CC2)CC1 (stereo not drawn) please.
Out: 38.1%

In: Next entry: CC1CCC(N(C)Cc2nc(NCCCN(C)C)c3ccccc3n2)CC1 (stereo not drawn)
Out: 56.5%

In: Consider next the compound CCC(C)(C)C1CCC(N(C)Cc2nc(NCCCN(C)C)c3ccccc3n2)CC1 (stereo not drawn) in the same way.
Out: 6.3 (2) %

In: Proceed to `CN(C)CCCNc1nc(CN2CCN(C(c3ccc(Cl)cc3)c3ccc(Cl)cc3)CC2)nc2ccccc12`
Out: 16.1%

In: Please give the result for `CN(C)CCCNc1nc(CN(C)Cc2ccco2)nc2ccccc12` too.
Out: 52.7%

In: Similarly, CN(C)CCCNc1nc(CN(C)C2CCC(C#N)(c3ccccc3)CC2)nc2ccccc12 (stereo not drawn) ?
Out: 5.5 (2) %

In: Then this compound: CN(C)CCCNc1nc(CN(C)C2C[C@@H]3CC[C@H]2C3)nc2ccccc12 (stereo partly drawn)
Out: 64.4%

In: And `NC(=O)C1CCN(c2nc(CN3CCN(C(c4ccc(Cl)cc4)c4ccc(Cl)cc4)CC3)nc3ccccc23)CC1` ?
Out: 79.9%

In: Another compound to look at: `CN(C)CCCNc1nc(CN2CCN(C(=O)Nc3ccc(Cl)c(Cl)c3)CC2)nc2ccccc12`
Out: 29.9%

In: CN(C)CCCNc1nc(CN(C)C2CCSC2)nc2ccccc12 (stereo not drawn) , same question.
Out: 45.0 (3) %

In: Next: `COC(=O)[C@@H](Nc1nc(CNC(=O)Nc2ccccc2C(F)(F)F)nc2ccccc12)C(C)C`
Out: 48.1%

In: Let us now turn to CN(C)CCCNc1nc(CN(C)C2CCCC(C(F)(F)F)C2)nc2ccccc12 (stereo not drawn)
Out: 57.7%

In: How about `CN(C)CCCNc1nc(CN(C)Cc2ccccc2C#N)nc2ccccc12` ?
Out: 52.7%

In: Cool, now CN(C)CCCNc1nc(CN(C)C2CCC(c3ccccc3)CC2)nc2ccccc12 (stereo not drawn)
Out: 21.0 (2) %

In: # repeat for CN(C)CCCNc1nc(CN(C)C2CCC(C(C)(C)C)CC2)nc2ccccc12 (stereo not drawn)
Out: 7.8 (2) %

In: Let us now turn to `CN(CCc1ccccn1)c1nc(CN2CCN(C(c3ccc(Cl)cc3)c3ccc(Cl)cc3)CC2)nc2ccccc12`
Out: 61.6%

In: And what about the compound `CN(C)CCCNc1nc(CN(C)Cc2cc3ccccc3o2)nc2ccccc12` ?
Out: 45.9 (3) %

In: For `CCOC(=O)[C@H](CCN(C)C)Nc1nc(CN2CCN(C(c3ccc(Cl)cc3)c3ccc(Cl)cc3)CC2)nc2ccccc12` then?
Out: 47.7%

In: # repeat for CN(C)CCCNc1nc(CN(C)C2CCC3CCCCC3C2)nc2ccccc12 (stereo not drawn)
Out: 28.7(3) %

In: Likewise for CC(C)C1CCC(N(C)Cc2nc(NCCCN(C)C)c3ccccc3n2)CC1 (stereo not drawn) ?
Out: 13.5 (3) %

In: Next compound: `CN(C)CCCNc1nc(CN2CCN(Cc3cccc4ccccc34)CC2)nc2ccccc12`
Out: 27.9%
